# target-of-assay: hGIP-R (Homo sapiens, UniProt P48546)
# Construct: expressed in transfected cells; host or cells: HEK-293 clonal cell lines
# Sequence (P48546 22-466): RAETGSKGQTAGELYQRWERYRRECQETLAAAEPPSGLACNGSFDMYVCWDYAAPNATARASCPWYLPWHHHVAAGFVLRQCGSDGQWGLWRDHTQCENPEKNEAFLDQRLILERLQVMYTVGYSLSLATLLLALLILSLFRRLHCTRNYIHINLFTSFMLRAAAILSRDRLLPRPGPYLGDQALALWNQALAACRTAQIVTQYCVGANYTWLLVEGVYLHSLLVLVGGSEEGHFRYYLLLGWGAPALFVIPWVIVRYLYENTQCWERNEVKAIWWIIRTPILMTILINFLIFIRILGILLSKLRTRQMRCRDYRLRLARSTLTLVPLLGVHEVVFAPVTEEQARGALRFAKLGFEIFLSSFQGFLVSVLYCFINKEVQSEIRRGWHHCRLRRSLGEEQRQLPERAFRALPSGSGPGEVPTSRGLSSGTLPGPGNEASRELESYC
# protocol-notes: Functional hGIP-R Assay (cAMP formation, HTRF)
# Type: cell-based
# test-conditions: cAMP efficacy; percent of maximal response to GIP(1-42)OH; 37° C., 0.1% bovine casein; arithmetic mean ± SEM
Here, each record is paired with measured Emax data.
readout: Emax (%)

- Cn1cc(-c2ccc([C@H]3C[C@@]34CCN([C@H](Cc3cnn(C(F)F)c3)C(=O)NC(C)(C)Cn3nc(C(F)(F)F)cc3-c3cn[nH]n3)C4=O)c(Cl)c2)cnc1=O [Example 154]: 74.2
- Cn1cc(C[C@@H](NC(=O)[C@H]2C[C@@H]2c2ccc(-c3cnc4nn(C)cc4c3)cc2)C(=O)NC(C)(C)Cn2nc(C(F)(F)F)cc2-c2ccn(C3CCOC3)n2)cn1 (mixture of isomers) [Example 53]: 123
- CN(C(=O)[C@H]1C[C@@H]1c1ccc(-c2cnc3nn(C)cc3c2)cc1)[C@H](Cc1cnn(C)c1)C(=O)NC(C)(C)Cn1nc(C(F)(F)F)cc1-c1n[nH]c(=O)s1 [Example 30]: 95.2
- Cc1cn2cc(-c3ccc(C4CC45CCN([C@H](Cc4cnn(C(F)F)c4)C(=O)NC(C)(C)Cn4nc(C(F)(F)F)cc4-c4ccc(=O)n(C)c4)C5=O)c(C(F)(F)F)c3)cnc2n1 (single isomer, unassigned; isomer 1) [Example 153]: 77
